# Assayed Target: HLA-A*29:02
# Assay Overview: IEDB peptide-MHC binding, purified MHC/direct/fluorescence; filed as Kd, often an IC50 or EC50 that approximates it; bounds were set here for any values at or beyond the usual limits of such assays
# Study Conditions: source organism: Mycobacterium tuberculosis str. Haarlem
Outcome Measure: pKd
Numbers only, as −log10 of the molar value.

* QTYMYTGQY | 7.77

Then this sequence:
-- ask # get_value(readout='pKd', item= "SAHSADGHY" )
-- reply 7.70

----------
# Assayed Target: HLA-B*44:03
# Assay Overview: IEDB peptide-MHC binding, purified MHC/competitive/radioactivity; filed as Kd, often an IC50 or EC50 that approximates it; bounds were set here for any values at or beyond the usual limits of such assays
# Study Conditions: source organism: Lymphocytic choriomeningitis virus (strain Armstrong)
Outcome Measure: Kd (µM)
Numbers only, in µM.

-- ask # get_value(readout='Kd', item= "TEAILQLGDL" )
-- reply 4.3

----------
# Assayed Target: HLA-B*08:02
# Assay Overview: IEDB peptide-MHC binding, purified MHC/direct/fluorescence; filed as Kd, often an IC50 or EC50 that approximates it; bounds were set here for any values at or beyond the usual limits of such assays
# Study Conditions: source organism: Ravn virus - Ravn, Kenya, 1987
Outcome Measure: Kd

-- ask Form entry - test system: HLA-B*08:02; read-out: Kd; sequence: "IFDDLQGSL"
-- reply ≥ 20 µM

----------
# Assayed Target: HLA-A*03:01
# Assay Overview: IEDB peptide-MHC binding, purified MHC/direct/fluorescence; filed as Kd, often an IC50 or EC50 that approximates it; bounds were set here for any values at or beyond the usual limits of such assays
# Study Conditions: source organism: Yellow fever virus 1899/81
pKd: −log10 of the molar value.
Outcome Measure: pKd

-- ask # get_value(readout='pKd', item= "RADEINAIL" )
-- reply ≤ 4.70

----------
# Assayed Target: HLA-A*11:01
# Assay Overview: IEDB peptide-MHC binding, purified MHC/direct/fluorescence; filed as Kd, often an IC50 or EC50 that approximates it; bounds were set here for any values at or beyond the usual limits of such assays
# Study Conditions: source organism: Giardia lamblia ATCC 50803
Outcome Measure: Kd

-- ask Form entry - test system: HLA-A*11:01; read-out: Kd; sequence: "ARADGILRF"
-- reply ≥ 20 µM

----------
# Assayed Target: HLA-B*58:01
# Assay Overview: IEDB peptide-MHC binding, purified MHC/direct/fluorescence; filed as Kd, often an IC50 or EC50 that approximates it; bounds were set here for any values at or beyond the usual limits of such assays
# Study Conditions: source organism: Influenza A virus (A/Wisconsin/4755/1994(H1N1))
Outcome Measure: Kd

-- ask # get_value(readout='Kd', item= "DPKKTGGPI" )
-- reply ≥ 20 µM

----------
Give Kd for every item shown.
# Assayed Target: HLA-B*44:02
# Assay Overview: IEDB peptide-MHC binding, purified MHC/competitive/radioactivity; filed as Kd, often an IC50 or EC50 that approximates it; bounds were set here for any values at or beyond the usual limits of such assays
# Study Conditions: source organism: Dengue virus 4 Philippines/H241/1956
One number for each entry, in nM.

- IESSKNQTW: 135
- MTDKTPVHSW: 1410

Then this sequence:
-- ask # get_value(readout='Kd', item= "RMAILGETAW" )
-- reply 1620

----------
# Assayed Target: HLA-B*39:01
# Assay Overview: IEDB peptide-MHC binding, purified MHC/competitive/fluorescence; filed as Kd, often an IC50 or EC50 that approximates it; bounds were set here for any values at or beyond the usual limits of such assays
# Study Conditions: source organism: Reston ebolavirus
Outcome Measure: Kd

-- ask # get_value(readout='Kd', item= "LPRERFRKT" )
-- reply ≥ 20 µM

----------
# Assayed Target: HLA-A*68:02
# Assay Overview: IEDB peptide-MHC binding, purified MHC/competitive/radioactivity; filed as Kd, often an IC50 or EC50 that approximates it; bounds were set here for any values at or beyond the usual limits of such assays
# Study Conditions: source organism: Homo sapiens
Give Kd for every item shown.

Worked cases, Kd given:
- RLKQLKRQL: 8.31 µM
- DMEISAYRKL: ≥ 60 µM
- ELVKVREKQL: 4.33 µM

-- ask Form entry - test system: HLA-A*68:02; read-out: Kd; sequence: "DLSDQIAEL"
-- reply 0.486 µM

----------
# Assayed Target: HLA-B*08:01
# Assay Overview: IEDB peptide-MHC binding, purified MHC/direct/fluorescence; filed as Kd, often an IC50 or EC50 that approximates it; bounds were set here for any values at or beyond the usual limits of such assays
# Study Conditions: source organism: Giardia lamblia ATCC 50803
pKd: −log10 of the molar value.
Outcome Measure: pKd

-- ask # get_value(readout='pKd', item= "ARADGILRF" )
-- reply ≤ 4.70

----------
# Assayed Target: HLA-B*07:02
# Assay Overview: IEDB peptide-MHC binding, purified MHC/direct/fluorescence; filed as Kd, often an IC50 or EC50 that approximates it; bounds were set here for any values at or beyond the usual limits of such assays
# Study Conditions: source organism: Sudan ebolavirus - Maleo (1979)
Outcome Measure: pKd
Give bare numbers, as −log10 of the molar value.

-- ask # get_value(readout='pKd', item= "TPSHYSGNI" )
-- reply 6.35

----------
# Assayed Target: HLA-B*44:02
# Assay Overview: IEDB peptide-MHC binding, purified MHC/direct/fluorescence; filed as Kd, often an IC50 or EC50 that approximates it; bounds were set here for any values at or beyond the usual limits of such assays
# Study Conditions: source organism: Influenza A virus (A/swine/Hong Kong/2106/98(H9N2))
Outcome Measure: Kd

-- ask Form entry - test system: HLA-B*44:02; read-out: Kd; sequence: "GENMAPEKV"
-- reply ≥ 20 µM

----------
# Assayed Target: HLA-A*11:01
# Assay Overview: IEDB peptide-MHC binding, purified MHC/direct/fluorescence; filed as Kd, often an IC50 or EC50 that approximates it; bounds were set here for any values at or beyond the usual limits of such assays
# Study Conditions: source organism: Camelpox virus CMS
Outcome Measure: Kd

-- ask # get_value(readout='Kd', item= "YYKDDISYF" )
-- reply ≥ 20 µM

----------
# Assayed Target: HLA-B*44:02
# Assay Overview: IEDB peptide-MHC binding, purified MHC/competitive/radioactivity; filed as Kd, often an IC50 or EC50 that approximates it; bounds were set here for any values at or beyond the usual limits of such assays
# Study Conditions: source organism: Dengue virus 1 Brazil/97-11/1997
Outcome Measure: pKd
Give bare numbers, as −log10 of the molar value.

-- ask # get_value(readout='pKd', item= "VEGLSGATW" )
-- reply 7.52

----------
# Assayed Target: HLA-A*02:06
# Assay Overview: IEDB peptide-MHC binding, purified MHC/competitive/fluorescence; filed as Kd, often an IC50 or EC50 that approximates it; bounds were set here for any values at or beyond the usual limits of such assays
# Study Conditions: source organism: Influenza A virus (A/Fort Monmouth/1/1947-mouse adapted(H1N1))
Outcome Measure: Kd

-- ask # get_value(readout='Kd', item= "SYLIRALTL" )
-- reply 1410 nM

----------
# Assayed Target: HLA-B*07:02
# Assay Overview: IEDB peptide-MHC binding, purified MHC/competitive/fluorescence; bounds were set here for any values at or beyond the usual limits of such assays
# Study Conditions: source organism: Vaccinia virus WR
Outcome Measure: pIC50
Give bare numbers, as −log10 of the molar value.

-- ask # get_value(readout='pIC50', item= "RLPKRSVML" )
-- reply 5.12

----------
# Assayed Target: HLA-A*24:02
# Assay Overview: IEDB peptide-MHC binding, purified MHC/competitive/radioactivity; filed as Kd, often an IC50 or EC50 that approximates it; bounds were set here for any values at or beyond the usual limits of such assays
# Study Conditions: source organism: Mammarenavirus juninense
Outcome Measure: Kd (µM)
One number for each entry, in µM.

-- ask # get_value(readout='Kd', item= "EMVCFHEFL" )
-- reply 16.9

----------
# Assayed Target: HLA-A*80:01
# Assay Overview: IEDB peptide-MHC binding, purified MHC/direct/fluorescence; filed as Kd, often an IC50 or EC50 that approximates it; bounds were set here for any values at or beyond the usual limits of such assays
# Study Conditions: source organism: Dengue virus 1 Singapore/S275/1990
pKd: −log10 of the molar value.
Outcome Measure: pKd

-- ask # get_value(readout='pKd', item= "AIDLDPVVY" )
-- reply ≤ 5.30

----------
# Assayed Target: HLA-A*31:01
# Assay Overview: IEDB peptide-MHC binding, purified MHC/direct/fluorescence; filed as Kd, often an IC50 or EC50 that approximates it; bounds were set here for any values at or beyond the usual limits of such assays
# Study Conditions: source organism: Escherichia coli O157:H7
pKd: −log10 of the molar value.
Outcome Measure: pKd

Worked cases, pKd given:
• LLDPLYFEV = ≤ 4.70
• WLSVIAFGK = ≤ 4.70

Then this sequence:
-- ask Form entry - test system: HLA-A*31:01; read-out: pKd; sequence: "VTRQIHNPR"
-- reply 7.01

Origin of measurements: the Immune Epitope Database (IEDB)
